tested on: Klebsiella aerogenes DSM 30053; assay: growth (OD595) fold change vs plate DMSO controls (fold change (ratio)); higher = more growth; settings: incubation time: 27 h, anaerobic, 37 °C
Counter-ions that a name gives are not always drawn.
Give measured growth for each item. Keep answers brief.
Give bare numbers.

Solved entries (count: 10):
1) CC(=O)[C@@]12O[C@](C)(c3ccccc3)O[C@@H]1C[C@H]1[C@@H]3CCC4=CC(=O)CC[C@]4(C)[C@H]3CC[C@@]12C [Algestone acetophenide] (20 µM)	0.998
2) CCCC(=O)N1CCCN(c2nc(N)c3cc(OC)c(OC)cc3n2)CC1 [Bunazosin hydrochloride] (20 µM)	1
3) CN(C(=O)C(Cl)Cl)c1ccc(OC(=O)c2ccco2)cc1 [Diloxanide furoate] (20 µM)	1.01
4) Cc1c(C)c2c(c(C)c1O)CCC(C)(C(=O)O)O2 (stereo not given) [Trolox] (20 µM)	0.962
5) CCOC(=O)[C@H](CCc1ccccc1)N[C@@H](C)C(=O)N1CCC[C@H]1C(=O)O [Enalapril maleate] (20 µM)	1.05
6) CS(=O)(=O)c1ccc(C2=C(c3ccccc3)C(=O)OC2)cc1 [Rofecoxib] (20 µM)	0.973
7) CC(C)c1cc2c(cc1S(=O)(=O)O)[C@@]1(C)CCC[C@@](C)(C(=O)O)[C@@H]1CC2 [Ecabet sodium] (20 µM)	1.01
8) C[C@H](Cc1cc2c(c(C(N)=O)c1)N(CCCO)CC2)NCCOc1ccccc1OCC(F)(F)F [Silodosin] (20 µM)	1.02
9) CC(C)(C)NC[C@@H](O)COc1cccc2c1CCCC2=O [(+) Levobunolol hydrochloride] (20 µM)	1.11
10) O=C1OC(CN2CCOCC2)CN1/N=C/c1ccc([N+](=O)[O-])o1 (stereo not given) [Furaltadone hydrochloride] (20 µM)	0.945

Need growth for each of these compounds.
1. O=C1Cc2cc(CCN3CCN(c4nsc5ccccc45)CC3)c(Cl)cc2N1 [Ziprasidone hydrochloride monohydrate] (20 µM)
2. O=C(O)Cc1ccccc1Nc1c(Cl)cccc1Cl [Diclofenac sodium] (20 µM)

1: 1.03; 2: 0.986

====

system: Klebsiella aerogenes DSM 30053; test: fold change of Putrescine concentration vs plate DMSO controls (fold change (ratio)); higher = more amine produced, active = hit call of the paper (significant change in both replicates, either direction); settings: incubation time: 27 h, anaerobic, 37 °C
Where a name gives a salt, the structure may show the parent alone.
Give measured fold change of Putrescine concentration for each item. Keep answers brief.

1. O=C(OCCOCCO)c1ccccc1Nc1cccc(C(F)(F)F)c1 [Etofenamate] (20 µM)	0.998 (inactive)
2. NS(=O)(=O)c1cc(C2(O)NC(=O)c3ccccc32)ccc1Cl (configuration not stated) [Chlorthalidone] (20 µM)	1.03 (inactive)
3. COc1cc2nc(N3CCN(C(=O)c4ccco4)CC3)nc(N)c2cc1OC [Prazosin hydrochloride] (20 µM)	1.02 (inactive)
4. OC(Cn1cncn1)(Cn1cncn1)c1ccc(F)cc1F [Fluconazole] (20 µM)	1.01 (inactive)
5. COc1ccc2cc([C@@H](C)C(=O)O)ccc2c1 [(R) Naproxen sodium salt] (20 µM)	0.974 (inactive)

Need fold change of Putrescine concentration for each of these molecules.
1. CC[C@H]1OC(=O)[C@H](C)[C@@H](O[C@H]2C[C@@](C)(OC)[C@@H](O)[C@H](C)O2)[C@H](C)[C@@H](O[C@@H]2O[C@H](C)C[C@H](N(C)C)[C@H]2O)[C@](C)(O)C[C@@H](C)C(=O)[C@H](C)[C@@H](O)[C@]1(C)O [Erythromycin] (20 µM)
2. CC(NN)c1ccccc1 (configuration not stated) [Mebanazine] (20 µM)

["0.936 (inactive)", "1.03 (inactive)"]
